measurement-target: S1P3 (Homo sapiens, UniProt Q99500)
Sequence (Q99500 whole entry): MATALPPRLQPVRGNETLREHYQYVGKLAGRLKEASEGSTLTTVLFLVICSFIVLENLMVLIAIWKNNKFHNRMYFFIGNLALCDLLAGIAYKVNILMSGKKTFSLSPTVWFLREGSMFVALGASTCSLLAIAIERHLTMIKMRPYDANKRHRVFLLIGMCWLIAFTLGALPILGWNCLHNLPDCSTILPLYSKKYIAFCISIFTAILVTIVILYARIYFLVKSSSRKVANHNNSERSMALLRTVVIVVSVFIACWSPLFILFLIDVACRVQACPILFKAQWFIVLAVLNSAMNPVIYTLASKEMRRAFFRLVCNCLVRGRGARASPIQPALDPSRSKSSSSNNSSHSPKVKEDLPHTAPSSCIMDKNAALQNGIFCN
method: FLIPR calcium flux assay, CHO cells expressing S1P3
test-settings: agonist activity; read-out: EC50 for S1P-3
pEC50: −log10 of the molar value.
observed-property: pEC50

## Input Query for S1P3 (Homo sapiens, UniProt Q99500): what pEC50 does the record show for CCCc1c(OC)ccc2cc(C(=O)Nc3ccc(CN)cc3)c(=O)oc12 [Example 1] ?
## Output < 6.00

###

measurement-target: S1P-2 (Homo sapiens)
Construct: expressed in transfected cells; host or cells: CHO cells (G418 selection)
Sequence (O95136 whole entry): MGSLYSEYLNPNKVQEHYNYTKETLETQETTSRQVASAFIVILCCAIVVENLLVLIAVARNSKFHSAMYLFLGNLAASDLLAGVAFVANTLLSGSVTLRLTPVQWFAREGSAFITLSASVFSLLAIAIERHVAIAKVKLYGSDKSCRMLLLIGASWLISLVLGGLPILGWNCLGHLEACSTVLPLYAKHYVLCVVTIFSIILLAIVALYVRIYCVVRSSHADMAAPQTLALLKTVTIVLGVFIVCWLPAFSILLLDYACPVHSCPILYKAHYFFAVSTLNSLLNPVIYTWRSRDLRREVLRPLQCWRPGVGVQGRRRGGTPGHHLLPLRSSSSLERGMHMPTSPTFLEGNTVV
method: FLIPR calcium flux assay, S1P-2
Format: cell-based
test-settings: agonist activity
observed-property: EC50

## Input Reported EC50 for CCCc1c(OC)ccc2cc(C(=O)Nc3ccc(CN)cc3)c(=O)oc12 : what is it?
## Output > 1000 nM

###

measurement-target: UniProt:O95977
Sequence (O95977 1-384): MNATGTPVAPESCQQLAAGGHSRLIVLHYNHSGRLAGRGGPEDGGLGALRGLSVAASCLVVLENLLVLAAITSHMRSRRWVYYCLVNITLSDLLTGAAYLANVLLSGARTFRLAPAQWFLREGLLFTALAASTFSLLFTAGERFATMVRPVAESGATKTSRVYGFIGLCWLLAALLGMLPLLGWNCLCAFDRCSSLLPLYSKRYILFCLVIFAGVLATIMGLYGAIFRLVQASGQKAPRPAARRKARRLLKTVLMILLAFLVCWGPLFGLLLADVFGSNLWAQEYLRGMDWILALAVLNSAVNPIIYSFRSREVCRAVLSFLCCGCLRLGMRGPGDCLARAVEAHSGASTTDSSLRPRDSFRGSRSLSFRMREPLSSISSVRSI
method: FLIPR calcium flux assay, S1P-4
test-settings: agonist activity
pEC50: −log10 of the molar value.
observed-property: pEC50

## Input Recall the recorded pEC50 for CCCc1c(OC)ccc2cc(C(=O)Nc3ccc(CN)cc3)c(=O)oc12 [Example 1] with UniProt:O95977 and state it.
## Output < 6.00
